Quick reference for melting point among some compounds

// worked examples, melting point included
INSERT INTO measurements (compound, result_value) VALUES
  ('O=[N+]([O-])c1ccc(C2OCc3cc(Br)ccc3O2)cc1 (configuration not stated)', '163 to 164 °C'),
  ('Cc1cc2c(cc1C)C(c1ccccc1)(C(F)(F)F)c1cc(C)c(C)cc1O2', '214 to 215 °C');

Which melting point is reported for this compound? COC(=O)c1sc(S(C)(=O)=O)cc1O 138 to 140 °C

Again, but for Clc1ccc2c(c1)C(c1ccccc1Cl)OCc1nnc(Br)n1-2 (configuration not stated) 167 to 168 °C

Again, but for Cc1nnc2ccc(-c3cccc(F)c3)nn12 184 to 186 °C

Again, but for Fc1cccc(CSc2nnc(-c3ccnc(Nc4ccccn4)c3)o2)c1 141 to 142 °C

Again, but for C[C@H](OC(c1ccccc1)(c1ccccc1)c1ccccc1)C(=O)O 100 to 106 °C

###

Quick reference for melting point among some compounds

// worked examples, melting point included
INSERT INTO assay_data (compound, result_value) VALUES
  ('Cn1ncnc1COc1nn2c(-c3ccccc3F)nnc2cc1C12CCC(C1)C2', '198 to 200 °C'),
  ('CCCn1nc2c(N)nc3ccccc3c2c1CCNC(=O)C1CC1', '215 to 217 °C'),
  ('CN1C(=O)SCC1C(=O)NCCO[N+](=O)[O-] (configuration not stated)', '105 to 106 °C'),
  ('Cc1cc(CN=C(O)c2cc(C(O)=NCc3cc(C)c(O)c(C(C)(C)C)c3)c(C(=O)O)cc2C(=O)O)cc(C(C)(C)C)c1O', '267 to 269 °C'),
  ('COC(=O)c1ccc(Cl)cc1NC(=O)CSc1ccc(O)cc1', '165 to 168 °C'),
  ('CCN(CC)Cc1ccc2c(c1)-c1[nH]nc(-c3ccsc3)c1C2', '157 to 158 °C');

As a next step, examine the compound that follows.
Which melting point is reported for this compound? CC(C)c1ccccc1Sc1c(O)cc(-c2ccc(OCC(=O)O)cc2)oc1=O 217 °C

###

Measurement Name: melting point (°C)

INSERT INTO measurements (smiles_entry, measurement_name, result_value) VALUES
  ('O=[N+]([O-])c1cccc(Oc2cc(Oc3cccc([N+](=O)[O-])c3)cc(C(F)(F)F)c2)c1', 'melting point', 118),
  ('N[C@@H]1C(=C2OCc3ccccc32)[C@@H]2C[C@H]1C(=C1OCc3ccccc31)[C@H]2N', 'melting point', 108);

I = O=C(Nc1cccc(S(=O)(=O)NCCc2ccncc2)c1)c1cnn2c(C(F)F)cc(-c3ccc(C(F)(F)F)cc3)nc12
II = CNC1=NN(c2cccc(C(F)(F)F)c2)CC1
Decide: I or II , by lowest recorded melting point. Write down the label attached to your selection. II

###

Quick reference for melting point among some molecules

Which melting point is reported for this molecule? CC[C@@H](C)[C@@H]1NC(=O)OC1(c1ccccc1)c1ccccc1 221 to 223 °C

###

Quick reference for melting point among some compounds

INSERT INTO assay_data (compound, result_value) VALUES
  ('COc1cccc(Nc2ncc3cc(-c4c(Cl)cccc4Cl)c(=O)n(C)c3n2)c1', '203 to 204 °C'),
  ('CC(C)Nc1ccc(-c2ncc(C(F)(F)F)cc2Cl)cc1N', '116 to 117 °C'),
  ('CC1(C)Nc2ncc(I)cc2N(Cc2cc(F)ccc2F)C1=O', '198 to 201 °C'),
  ('C[C@H](O)C#Cc1cc(CN2CCOCC2)cc2c(=O)c(C(=O)NCc3ccc(Cl)cc3)cn(C)c12', '158 to 161 °C'),
  ('O=C1C(=O)c2ccccc2C2=C1SCC1(CCN(CC(O)COc3ccccc3)CC1)O2 (stereo not drawn)', '174 to 176 °C'),
  ('CCOC(=O)c1ncc2[nH]c3ccc(Br)cc3c2n1', '286 to 290 °C'),
  ('COC1=C(OC)C(=O)C2=C(CCC(CCn3cnc4ccccc43)CC2)C1=O', '159 to 163 °C'),
  ('CN(Cc1cccc2c1CN(C1CCC(=O)NC1=O)C2=O)C(=O)Nc1ccc(Cl)cc1 (stereo not drawn)', '255 to 257 °C');

Which melting point is reported for this compound? CC(=O)O[C@H]1CC[C@H](c2ccc(I)cc2)CC1 84.4 to 85.4 °C

Again, but for CC(C)c1c(CCC=O)c2c(c(C(C)C)c1OCc1ccccc1)CC(C)(C)O2 120 to 122 °C

Again, but for CCOc1cccc2cc(C(=O)c3cc(OC)ccc3OC)oc12 55 to 57 °C

Again, but for CSC1C(=O)Nc2c(C(=O)c3ccc(Cl)cc3)cccc21 (stereo not drawn) 186 to 188 °C

Again, but for CN1CCC(c2c(O)cc(O)c3c(=O)cc(Oc4ccccc4Cl)oc23)C(O)C1 (stereo not drawn) 105 °C

Again, but for CON=C(C)c1ccc(Nc2nc3ccccc3c3occc23)cc1 222 to 223 °C

Again, but for Cc1cc(-c2cc3c(OC[C@@H](O)CN4CCC(c5ccc6ccccc6c5)CC4)cccc3o2)nn1C 155 to 157 °C

Again, but for O=C(O)c1c(Br)ccc(OC(F)(F)F)c1F 112 °C

Again, but for COC(=O)c1ccc(OC(=O)c2ccccc2)cc1OC 91 °C

Again, but for Cc1ccc(S(=O)(=O)OCCOCn2cc(F)c(=O)[nH]c2=O)cc1 141 to 142 °C

Again, but for O=C(Nc1ccc(N2CCN(Cc3ccccc3)CC2)cc1)c1ccccc1-c1ccc(C(F)(F)F)cc1 180 °C

Again, but for N#CC(Cc1c[nH]cn1)(c1ccccc1)c1ccc(Br)cc1 (stereo not drawn) 121 to 124 °C

Again, but for O=S(=O)(CCN1CC(c2ccccc2)C(c2ccc(Cl)cc2)=N1)c1cccc(C(F)(F)F)c1 (stereo not drawn) 118 to 119 °C

Again, but for O=C1CCC(N2C(=O)c3cccc(OCc4cc5ccccc5o4)c3C2=O)C(=O)N1 (stereo not drawn) 234 to 236 °C

Again, but for CCCCNC(=O)NS(=O)(=O)CCc1c(C)nn(C)c1-n1ccc2cc(C(F)(F)F)cnc21 163 to 164 °C

Again, but for CC(C)(C)c1cnnc(NN)n1 117 to 118 °C

Again, but for CCCCCS(=O)(=O)NC(=O)c1ccc2nc(C)n(Cc3ccc(N(C)CC)cc3Cl)c2n1 148 to 149 °C

Again, but for COC(=O)c1cccnc1N(C)C1CCN(Cc2ccccc2)CC1 109 to 110 °C

Again, but for CN1CCc2cc(CO)sc2C(c2ccccc2)C1 (stereo not drawn) 112 °C

Again, but for O=C(CNS(=O)(=O)c1ccc2ccccc2c1)NCCNC(=O)C1CCN(c2ccncc2)CC1 107 to 109 °C

Again, but for O=C(c1ccc(Cl)c([N+](=O)[O-])c1)c1ccc(F)cc1F 90.5 °C

Again, but for CN1C(=O)[C@H](NC(=O)CCC2CCCCC2)N=C(c2ccccc2)c2ccccc21 144 to 146 °C

Again, but for Cc1cc(C)c(Nc2nc(C)ncc2S(=O)(=O)c2ccc(C#N)cc2)c(C)c1 258 to 260 °C

Again, but for COCc1cnc2c(N)cccc2c1Cl 107 °C

Again, but for CC(=O)Nc1cn2cc(Sc3ccccc3)ccc2n1 257 to 259 °C

Ref: a melting point compilation (Tetko et al.; mined from patent text by program, amines drawn as free bases though some values may be those of a salt)
